Test system: HL-60 cells
Assay: cells
Settings: Homo sapiens, HL-60, 72 h, read-out: % Toxicity HL-60
measured_attribute: cytotoxicity at 0.1 µM (%)
Give the number; % is assumed, so skip it.

Cc1ccc(-c2nc3cc(F)ccc3n2C(=O)c2cccc3ccccc23)o1 : 50
O=C(c1cccc2ccccc12)n1c(-c2ccco2)nc2ccc(Cl)cc21 : 10
COc1cccc(-c2nc3ccc(Cl)cc3n2C(=O)c2cccc3ccccc23)c1 : 52

Next:
Ask: Look at this compound and give its reported cytotoxicity at 0.1 µM. `COc1cccc(-c2nc3cc(F)ccc3n2C(=O)c2cccc3ccccc23)c1`
Reply: 45

* * *

Target: human cannabinoid CB1 receptor (Homo sapiens)
Construct: purchased Perkin Elmer Inc., Singapore Pte; Ltd. RBHCB1M400UA; host or cells: HEK293-EBNA cell membranes (overexpressing)
Assay: biochemical
Type: binding
Conditions: CB1 Ki
pKi: −log10 of the molar value.
measured_attribute: pKi

Ask: Look at this compound and give its reported pKi. `O=C(c1cccc2ccccc12)n1c(-c2ccon2)nc2ccc(Cl)cc21`
Reply: < 5.00

* * *

Let's look at some compounds and their measured inhibition at 10 µM.
Biological target: human recombinant cannabinoid CB2 receptor (Homo sapiens, UniProt P34972)
Construct: purchased Perkin Elmer Inc., Singapore Pte; Ltd. RBXCB2M400UA; host or cells: HEK293-EBNA cell membranes (overexpressing)
Sequence (P34972 whole entry): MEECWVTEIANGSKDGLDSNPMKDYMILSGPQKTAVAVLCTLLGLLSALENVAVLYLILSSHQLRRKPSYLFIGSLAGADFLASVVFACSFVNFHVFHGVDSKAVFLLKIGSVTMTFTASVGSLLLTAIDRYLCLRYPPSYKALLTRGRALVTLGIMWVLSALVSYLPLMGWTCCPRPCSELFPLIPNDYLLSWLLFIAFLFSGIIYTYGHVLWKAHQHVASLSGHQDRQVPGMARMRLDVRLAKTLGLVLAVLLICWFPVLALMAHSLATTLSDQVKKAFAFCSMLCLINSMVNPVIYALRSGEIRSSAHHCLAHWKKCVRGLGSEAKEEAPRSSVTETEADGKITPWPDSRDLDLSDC
Test: CB2 radioligand displacement binding assay ([3H]CP-55940)
Details: displacement of [3H]CP-55940 at 10 μM compound; read-out: CB2 Max Tested µM (% Displacement)
Give the number; % is assumed, so skip it.

// worked examples, inhibition at 10 µM included
O=C(c1cccc2ccccc12)n1c(-c2ccco2)nc2cc(Cl)ccc21 : 46.5
O=C(c1cccc2ccccc12)n1c(-c2cccnc2)nc2ccc(F)cc21 : 16
O=C(c1cccc2ccccc12)n1c(-c2ccco2)nc2cc(F)ccc21 : 54.5
O=C(c1cccc2ccccc12)n1c(-c2cccnc2)nc2cc(F)ccc21 : 43

Ask: Look at this compound and give its reported inhibition at 10 µM. `Cc1ccc(-c2nc3ccc(F)cc3n2C(=O)c2cccc3ccccc23)o1`
Reply: 52

* * *

Let's look at some compounds and their measured inhibition at 10 µM.
Molecular target: human cannabinoid CB1 receptor (Homo sapiens, UniProt P21554)
Construct: purchased Perkin Elmer Inc., Singapore Pte; Ltd. RBHCB1M400UA; host or cells: HEK293-EBNA cell membranes (overexpressing)
Sequence (P21554 whole entry): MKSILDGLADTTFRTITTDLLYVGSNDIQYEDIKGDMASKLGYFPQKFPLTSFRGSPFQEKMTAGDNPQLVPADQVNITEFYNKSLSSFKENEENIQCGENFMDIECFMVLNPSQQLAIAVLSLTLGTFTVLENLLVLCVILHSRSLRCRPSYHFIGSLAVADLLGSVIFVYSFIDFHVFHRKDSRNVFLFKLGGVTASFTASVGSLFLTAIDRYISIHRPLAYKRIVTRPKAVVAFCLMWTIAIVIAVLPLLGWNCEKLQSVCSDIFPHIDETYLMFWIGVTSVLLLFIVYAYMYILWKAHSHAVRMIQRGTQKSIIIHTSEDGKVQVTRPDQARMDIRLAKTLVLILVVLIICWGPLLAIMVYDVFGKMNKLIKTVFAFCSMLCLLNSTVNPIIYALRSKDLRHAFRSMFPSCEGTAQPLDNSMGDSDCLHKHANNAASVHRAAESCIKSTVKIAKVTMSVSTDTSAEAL
Test: biochemical
Type: binding
Conditions: displacement of [3H]CP-55940 at 10 μM compound; read-out: CB1 Max Tested µM (% Displacement)
Give the number; % is assumed, so skip it.

Ask: Look at this compound and give its reported inhibition at 10 µM. O=C(c1cccc2ccccc12)n1c(-c2ccon2)nc2ccc(F)cc21 [5d′]
Reply: 34

Ask: Look at this compound and give its reported inhibition at 10 µM. Cc1ccc(-c2nc3ccc(Cl)cc3n2C(=O)c2cccc3ccccc23)o1 [4e′]
Reply: 38

Ask: Look at this compound and give its reported inhibition at 10 µM. COc1cccc(-c2nc3cc(Cl)ccc3n2C(=O)c2cccc3ccccc23)c1 [Compound 4b]
Reply: 39

Ask: Look at this compound and give its reported inhibition at 10 µM. Cc1cc(-c2nc3cc(F)ccc3n2C(=O)c2cccc3ccccc23)no1 [Compound 5c]
Reply: 54.5

* * *

Biological target: human cannabinoid CB1 receptor (Homo sapiens)
Construct: purchased Perkin Elmer Inc., Singapore Pte; Ltd. RBHCB1M400UA; host or cells: HEK293-EBNA cell membranes (overexpressing)
Test: biochemical
Format: binding
Conditions: [3H]CP-55940 0.5 nM, hCB1 HEK293-EBNA membranes, mean ± SEM n = 3; read-out: CB1 IC50
Let's look at some compounds and their measured IC50.

// worked examples, IC50 included
COc1cccc(-c2nc3ccc(Cl)cc3n2C(=O)c2cccc3ccccc23)c1 : > 10 µM
O=C(c1cccc2ccccc12)n1c(-c2cccnc2)nc2ccc(Cl)cc21 : > 10 µM
Cc1ccc(-c2nc3cc(F)ccc3n2C(=O)c2cccc3ccccc23)o1 : 7.4 µM

Next:
Ask: Look at this compound and give its reported IC50. `Cc1cc(-c2nc3ccc(F)cc3n2C(=O)c2cccc3ccccc23)no1`
Reply: > 10 µM

* * *

Biological target: human cannabinoid CB1 receptor (Homo sapiens, UniProt P21554)
Construct: purchased Perkin Elmer Inc., Singapore Pte; Ltd. RBHCB1M400UA; host or cells: HEK293-EBNA cell membranes (overexpressing)
Experiment: biochemical
Assay type: binding
Details: displacement of [3H]CP-55940 at 10 μM compound; read-out: CB1 Max Tested µM (% Displacement)
measured_attribute: inhibition at 10 µM

// worked examples, inhibition at 10 µM included
O=C(c1cccc2ccccc12)n1c(-c2ccco2)nc2cc(F)ccc21 [Compound 5f] : > 55%
O=C(c1cccc2ccccc12)n1c(-c2ccco2)nc2cc(Cl)ccc21 [Compound 4f] : > 50%
O=C(c1cccc2ccccc12)n1c(-c2ccco2)nc2ccc(F)cc21 [Compound 5f′] : > 55%
COc1cccc(-c2nc3cc(F)ccc3n2C(=O)c2cccc3ccccc23)c1 [Compound 5b] : > 55%

Next:
Ask: Look at this molecule and give its reported inhibition at 10 µM. O=C(c1cccc2ccccc12)n1c(-c2ccon2)nc2cc(Cl)ccc21 [Compound 4d]
Reply: > 55%
